# METHOD_DESCRIPTION: NCI Yeast Anticancer Drug Screen. Data for the cln2 rad14 strain (AID 165);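 also: 0% = growth equal to vehicle treated cultures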
# CONDITION_NOTES: S. cerevisiae cln2 rad14 strain, at 50.0 µM, active compounds read high
About 79,000 compounds went through this panel and 15% of them were active in at least one assay; those are over-represented in the sample as a whole.
Please respond with reported growth inhibition for every item in the list.
Numbers only, in %.

Previously resolved entries follow.
COMPOUND	PROPERTY_NAME	NUMERIC_RESULT
COC(=O)c1ccccc1N=NNc1ccc(C(F)(F)F)c([N+](=O)[O-])c1	growth inhibition	-2.35
CC(=O)Oc1cccc(/C=C/C(=O)O)c1	growth inhibition	3.75

Provide the reported growth inhibition of each entry below, same order.
1. Cc1c(C)c(C)c2cc3c(C)c(C)c(C)c(C)c3cc2c1C
2. CN(C)/C=N/c1nc2ncn(CCOC(=O)c3ccccc3)c2c(=O)[nH]1
3. N=C1N=Nc2nc(C(C(=O)c3cccc([N+](=O)[O-])c3Cl)c3nc4n(c3O)C(=N)N=N4)c(O)n21 (centres undefined)
4. N/C(=C\C(=O)c1ccccc1)C(=O)c1ccccc1
5. COc1cc(C2OCCO2)ccc1O
6. O=C(COc1ccc(Cl)cc1)Nc1ccccc1Br
7. COc1cc(C2c3cc4c(cc3C(OC(=O)C[n+]3ccccc3)C3COC(=O)C23)OCO4)cc(OC)c1OC (centres undefined)

Out:
-2.35
10.6
-23.5
-10.7
39
9
-4.75

Parameter requested: growth inhibition. Apply to each item below.
1. COC1(C)CNc2ccccc2C(=O)N1 (centres undefined)
2. O=S1C2CCC(Br)C1CCC2Br (centres undefined)
3. CCOC(=O)c1ccc(N2C(=S)N(C(=O)c3ccccc3)C(=Nc3ccccc3)C2=Nc2ccccc2)cc1
4. CCOc1ccc(N2C(C#N)c3ccccc3OC2c2ccccc2O)cc1 (centres undefined)
5. NC(=O)C(Cc1ccccc1)NC(=O)C1CCCN1 (centres undefined)
6. CC(=O)c1ccc(N=C2C(=O)Nc3ccccc32)cc1
7. CCCC(CCC)(C(=O)O)C(=O)O
8. O=c1cc(-c2ccccc2)c2cc3c(=O)ccoc3cc2o1

Out:
19.1
-5.35
1.35
-5.2
-33.9
19.8
27.5
14.9

Provide growth inhibition values for the following items, in order.
1. CCN(CC)[Si](C)(C)C
2. CNc1ccn(C2OC(CO)C(O)C2O)c(=O)n1 (centres undefined)

Out:
-6.65
11.9

###

Answer each item with its documented growth inhibition.
# METHOD_DESCRIPTION: NCI Yeast Anticancer Drug Screen. Data for the sgs1 mgt1 strain (AID 161);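 also: 0% = growth of cultures given vehicle only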
# CONDITION_NOTES: S. cerevisiae sgs1 mgt1 strain, at 50.0 µM, active compounds read high
Compounds without any hit were thinned out: in the full panel of roughly 79,000, 15% have a hit.
Answers are plain numbers, in %.

Recorded results for 3 molecules are shown here.
MOLECULE	UNITS_OF_MEASURE	NUMERIC_RESULT
CC(=O)C(C)(C)CCC(C)(C)C(C)=O	%	-4
CC1(C)NNC(=S)NC1=O	%	-7.65
[CH3][Sn]([CH3])([N](c1ccccn1)c1ccccn1)[N](c1ccccn1)c1ccccn1	%	17

Provide each entry's growth inhibition from the list below.
1. Cc1cc(Cl)c2c(c1)C(=O)C(C)C2.[Cu+2] (stereo unspecified)
2. CCOC(=O)C1=C(C(=O)c2cccc3ccccc23)C(c2cccc([N+](=O)[O-])c2)C(C(=O)c2cccc3ccccc23)=C(C(=O)OCC)N1
3. CCCCC(=O)N/N=C/c1c[nH]c2ccc(Br)cc12

Out:
-18.8
13.7
-9.1

###

# METHOD_DESCRIPTION: NCI Yeast Anticancer Drug Screen. Data for the mlh1 rad18 strain (AID 175)
# CONDITION_NOTES: S. cerevisiae mlh1 rad18 strain growth inhibition; at 50.0 µM
This is part of a sample that, as a whole, favours compounds with a hit. Of some 79,000 tested, about 15% had one in any assay. Activity calls are given as the source filed them. Cut-off read from the data, not from the text of the source: active = growth inhibition above about 70%; inactive = the rest.
Parameter call: string, one of active, inactive

COMPOUND	GROUP
CCCCCCC(=O)CC(SCCS)c1ccc(Cl)c(Cl)c1 (centres undefined)	inactive

In: Outcome logged for CCC(C)(N)C(=O)O (centres undefined) in this assay:
Out: inactive

In: I'd appreciate the recorded outcome for `COc1ccc(OC)c2cc(C3(C)SCCCS3)ccc12` from this test.
Out: inactive

In: Call for entry Cc1ccc(C2(C)CC[C@@H]3C[C@@]32C)c(O)c1 (some centres undefined) :
Out: active

###

# METHOD_DESCRIPTION: NCI Yeast Anticancer Drug Screen. Data for the rad50 strain (AID 155);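 also: 0% = growth of vehicle-only cultures of the same strain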
# CONDITION_NOTES: S. cerevisiae rad50 strain growth inhibition; at 50.0 µM
About 79,000 compounds went through this panel and 15% of them were active in at least one assay; those are over-represented in the sample as a whole. Activity calls are given as the source filed them. No stated cut-off is given here; in the data, active means growth inhibition above about 70%; inactive means the rest.
Valid outcomes are listed here; reply with one: TRUE (active), FALSE (inactive)

COMPOUND	GROUP
O=C1c2cccc3cccc(c23)C(=O)N1Cc1ccco1	FALSE
O=C(COc1ccc(Cl)c(Cl)c1)Nc1cccc(C(=O)CCl)c1	FALSE
COc1cc2c3c(c1)nc(C)n3C(=O)C(c1ccccc1)S2 (configuration not stated)	FALSE

In: Query: recorded result category for `Cc1cccc(-c2nnc(N)o2)c1[N+](=O)[O-]` in this test
Out: FALSE

In: Test call for this compound, please: `NC(=O)N/N=C/c1ccccc1O`
Out: FALSE

###

# METHOD_DESCRIPTION: NCI Yeast Anticancer Drug Screen. Data for the sgs1 mgt1 strain (AID 161);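 also: 0% = growth of cultures given vehicle only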
# CONDITION_NOTES: S. cerevisiae sgs1 mgt1 strain, at 50.0 µM, active compounds read high
About 79,000 compounds went through this panel and 15% of them were active in at least one assay; those are over-represented in the sample as a whole. Active and inactive are the calls of the source. Cut-off read from the data, not from the text of the source: active = growth inhibition above about 70%; inactive = the rest.
PROPERTY_NAME: growth inhibition

MOLECULE	growth inhibition
COC(=O)N/N=C/c1oc(-c2cccc([N+](=O)[O-])c2)c(-c2cccc([N+](=O)[O-])c2)c1[N+](=O)[O-]	16.5% (inactive)

Please state growth inhibition for every molecule in the list that follows.
1. CCOC(=O)NC(N)=O
2. CC(C)C(=O)OC1CCCCC1Cc1ccccn1 (configuration not stated)
3. O=C(Cl)CCc1ccnc2ccccc12

Out:
14.2% (inactive)
29.1% (inactive)
4.2% (inactive)

Hi! Can you tell me growth inhibition for each of these molecules?
1. COc1nsc2ccc(C(C)C(N)=O)cc12 (configuration not stated)
2. O=C1c2ccccc2-c2ccc(N=Cc3cccs3)cc21
3. CC1(Cc2ccccc2)NC(=S)NC1=O (configuration not stated)

Out:
["-9.1% (inactive)", "-3.35% (inactive)", "-9.9% (inactive)"]

###

# METHOD_DESCRIPTION: NCI Yeast Anticancer Drug Screen. Data for the cln2 rad14 strain (AID 165);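 also: 0% = growth equal to vehicle treated cultures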
# CONDITION_NOTES: S. cerevisiae cln2 rad14 strain, at 50.0 µM, active compounds read high
Compounds without any hit were thinned out: in the full panel of roughly 79,000, 15% have a hit.
PROPERTY_NAME: growth inhibition (%)
Give bare numbers, in %.

Solved cases (2 shown):
MOLECULE	growth inhibition / %
O=P(c1ccccc1)(c1ccccc1)C(O)c1ccncc1 (centres undefined)	10.9
Cc1ccc(S(=O)(=O)OCCN(CCO)c2cn(C(c3ccccc3)(c3ccccc3)c3ccccc3)c(=O)n(C(c3ccccc3)(c3ccccc3)c3ccccc3)c2=O)cc1	-6.8

For each listed entry, give its growth inhibition.
1. N#Cc1ccccc1OCCCCCCCCCCOc1ccccc1C#N
2. CCN(CC)CC(Oc1ccccc1)C(=O)c1ccccc1 (centres undefined)
3. Cc1cc2c(=O)cc(-c3ccncc3)oc2c(C(=O)O)c1C
4. O=c1c2[nH]cnc2n(-c2ccccc2)c(=S)n1-c1ccccc1
5. Nc1cccc(S(=O)(=O)Nc2c(N)nc(SCC(=O)O)[nH]c2=O)c1
6. C/C(COC(=O)c1cc(C)nc2ccccc12)=N\O

Out:
31.4
-30.1
20.5
-6.55
-9.3
-20.8

# per-item lookup of growth inhibition; items listed below
1. CN1C(=O)CNS1(=O)=O
2. CC(=O)Nc1ccc(CCNC(=O)c2ccc3ccccc3c2O)cc1
3. NCCSSC/C=C\CSSCCN
4. CC(NN(C)C(=S)Nc1ccccc1)c1ccccn1 (centres undefined)
5. Cc1c(O)nc(N)[nH]c1=O

Out:
1: -11.1; 2: -6.35; 3: 16.2; 4: -10.8; 5: 1.7

Record growth inhibition per entry; entries follow.
1. CC(=O)Oc1c2oc3cc(O)c(O)cc3c2c(OC(C)=O)c2oc3cc(O)c(O)cc3c12
2. CCCCC(=O)N/N=C/c1c[nH]c2ccc(Br)cc12
3. COc1ccc(-n2c(CCCC(=O)O)nc3c2C(=O)c2ccccc2C3=O)cc1
4. C#CCOC(=O)C(N)CS (centres undefined)
5. Cc1cc2ccccc2c2cc3ccccc3cc12
6. O=C(/C=C/c1ccccc1)Cc1nc2nnc(NC(=O)Nc3ccc(Cl)cc3)n2[nH]c1=O

Out:
1: -5.45; 2: 0.85; 3: 17.1; 4: 9.8; 5: 11.8; 6: -8.05
